Biological target: NUDT7 (Homo sapiens, UniProt P0C024)
Construct: residues 14-235, E. coli, pNIC28-Bsa4, N-terminal His6 tag removed by TEV, construct 26672 Da
Sequence (P0C024 14-235): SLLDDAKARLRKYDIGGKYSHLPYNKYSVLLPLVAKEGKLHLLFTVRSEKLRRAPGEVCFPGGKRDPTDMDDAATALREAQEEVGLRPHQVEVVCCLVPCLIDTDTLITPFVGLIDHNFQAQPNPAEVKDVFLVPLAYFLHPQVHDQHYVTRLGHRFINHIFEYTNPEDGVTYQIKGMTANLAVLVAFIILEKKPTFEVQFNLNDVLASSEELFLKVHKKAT
Design: Intact protein LC/MS covalent labelling, fragments in pools of five, 200 uM each, 4 °C
Details: 24 h, 4 °C, pool of five; 200 µM; covalent
Listed here are molecules together with their documented NUDT7.

Previously resolved entries follow.
| molecule | NUDT7 |
| --- | --- |
| C=CC(=O)NNC(=O)c1ccccc1 [PCM-0102541] | 0 |
| COC(=O)C1(NC(=O)CCl)CCCCC1 [PCM-0102734] | 0 |
| CN(C(=O)CCl)c1ccccc1 [PCM-0102368] | 0 |
| O=C(CCl)NCC12CC3CC(CC(C3)C1)C2 [PCM-0102706] | 0 |
| O=C(CCl)Nc1cccc(Cl)c1 [PCM-0102198] | 0.28 |
| O=C(CCl)Nc1ccc(Br)cc1Cl [PCM-0102505] | 0.59 |

Next:
Kindly note the recorded NUDT7 for O=C(CCl)NCC(=O)N1CCCC1 [PCM-0102391] , which is 0
